protocol summary: Restrictive medium S. cerevisiae growth inhibition, OD615, pilot screen of yeast lifespan reduction project, restrictive growth control (AID 706);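 further: modified DeaD lifespan yeast strain shifted to restrictive glucose medium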
test settings: OD615, 48 h, at 10 µM, stronger effect = higher value
Label not met if growth inhibition falls below -10%; label met in every other case.

hey, is growth inhibition for this one >= -10%? `CCOC(=O)c1cc2c(=O)n3ccccc3nc2n(CCCOC)c1=NC(=O)c1cccnc1`
met

Form field: growth inhibition at least -10%? Entry: Cc1ccc(CC2CC(=O)N(c3cc(C)on3)C2=O)cc1 (stereo not given)
not met

Please tell me: is the molecule `O=C(NCCCN1CCOCC1)c1ccc(CS(=O)(=O)c2ccc(Br)cc2)o1` at or over -10% in terms of growth inhibition?
not met

Does growth inhibition meet or surpass -10% for `C=CCn1c(=O)/c(=C/c2cc(OC)c(OC)c(OC)c2)s/c1=C(/C#N)c1nc2ccccc2n1C` ?
met

Check if growth inhibition >= -10% (inclusive). Item: `Cc1ccccc1Nc1ncnc2c1cnn2-c1ccccc1`
met

growth inhibition >= -10% for `CCOC(=O)CSc1nc2sc(C(=O)O)c(C)c2c(=O)[nH]1` ?
met

Quick check, growth inhibition >= -10%? CCC(C)OC(=O)C1=C(C)NC(=O)NC1c1ccc(F)cc1 (stereo not given)
not met

---

Collected growth inhibition values appear next to each entry.
protocol summary: OD615 S. cerevisiae growth inhibition, permissive medium, pilot counter-assay, permissive growth control for S. cerevisiae lifespan shortening project (AID 705)
test settings: OD615, 24 h, at 10 µM, stronger effect = higher value
Please state the figure in %; there is no need to write the unit.

Sample answers from the record:
CC1(C)C(=O)OC(c2cc(Br)ccc2O)C(C)(C)C1=O (stereo not drawn) ... -8.82
CCCc1cc(C(=O)NCC(C)C)no1 ... -3.57
Cc1cc(C)nc(SCC(=O)Oc2ccc3oc(=O)cc(C)c3c2)n1 ... -15.6
O=c1c2ccccc2ncn1-c1ccc2c(c1)OCCO2 ... -2.29
CCCCS(=O)CC(COCc1ccccc1)OC(=O)CSc1nc(C)cc(C)n1 (stereo not drawn) ... -8.16

// growth inhibition lookup, compound = `CCOC(=O)C1CCN(C(=O)c2cc3c(-c4ccc(OC)c(OC)c4)nn(C)c3s2)CC1` , result: -7.02

Measured growth inhibition of COc1ccc(N2Cc3cccc(C(=O)NC(C)CCc4ccco4)c3C2=O)cc1 (stereo not drawn) : -3.44

get_value(item= CCOC(=O)c1[nH]c2c(c1C)C(=O)CC(c1ccc(F)cc1)C2 (stereo not drawn) , readout=growth inhibition) returns -5.83

Quick note, growth inhibition for `Cc1cc(C)c2c(CC(=O)O)coc2c1` landed at -5.72

The compound identified as CCC1CC(C)(C(=O)Nc2ccc(S(N)(=O)=O)cc2)OC1=O (stereo not drawn) registered its growth inhibition at -2.94

---

protocol summary: viability gain of MRP-1-high H69AR cells under doxorubicin, pilot screen, MRP-1 activator project, CellTiter-Glo, duplicate (AID 807);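 further: compound pretreatment 18-22 h then 72 h combined with doxorubicin; 0% = doxorubicin alone and 100% = vehicle without doxorubicin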
test settings: H69AR viability with doxorubicin, CellTiter-Glo luminescence; at 10 µM; stronger effect = higher value
Here the recorded viability increase is given for each entry.
Kindly answer with a numeric value in %, unit omitted.

Short answer for COc1ccc2c(c1)C(=O)CC(c1ccccc1F)O2 (stereo not given) : viability increase was -3.63

So for `Cc1onc(-c2ccccc2Cl)c1C(=O)Nc1nnc(-c2ccc(F)cc2)s1` , the logged viability increase turned out to be 2.9

The recorded viability increase for entry `Cc1cccc(N=C(N2CCOCC2)P(=O)(N2CCOCC2)N2CCOCC2)c1` equals -0.69

# viability increase (compound: `Cc1cccc(OCC2=N/C(=C\N(C)C)C(=O)O2)c1` ) is -0.64

`COC(=O)c1nnn(Cc2ccccc2)c1N` yielded viability increase of -1.68

---

Measured RAM network inhibition of individual entries
protocol summary: RAM signaling pathway blockade in yeast – S. cerevisiae, Pdr1DBD-CYC8 efflux-inhibited sensitized strain, primary screen (AID 1298);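 further: 0% = DMSO untreated cells without growth and 100% = 10 µM 1-NA-PP1 full growth; higher means more yeast growth rescued from 5-FOA killing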
test settings: S. cerevisiae cbk1-as DSE1-URA3 strain, 5-FOA growth OD615, 2 d; at 50 µM; stronger effect = higher value
Answer in %, number only, no unit symbol.

The compound listed as `Cc1ccc(Cl)cc1NC(=O)Cn1cc2c(n1)CCCC2` shows RAM network inhibition equal to 0.23

`O=C(Nc1cccc(Br)c1)c1cc2ccccc2o1` has a reported RAM network inhibition of 3.48

---

protocol summary: RAM signaling pathway blockade in yeast – S. cerevisiae, Pdr1DBD-CYC8 efflux-inhibited sensitized strain, primary screen (AID 1298);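 further: 0% = DMSO untreated cells without growth and 100% = 10 µM 1-NA-PP1 full growth; higher means more yeast growth rescued from 5-FOA killing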
test settings: S. cerevisiae cbk1-as DSE1-URA3 strain, 5-FOA growth OD615, 2 d; at 50 µM; stronger effect = higher value
# reported RAM network inhibition; entries follow
Give the number; % is assumed, so skip it.

Worked cases, answers included:
CC(=O)NCc1nc2ccccc2n1Cc1ccccc1F ... 2.03
Cc1ccccc1Nc1ncnc2c1cnn2-c1ccccc1 ... -0.01
Cc1cc(NC(=O)CN2CCCCC2C)nc2c1c(=O)oc1ccccc12 (centres undefined) ... 0.77

// moving on: another record for RAM network inhibition
RAM network inhibition in this record for COc1cccc(CN2C(=O)CCC2(C)C(=O)NC2CCCCC2)c1 (centres undefined) : 0.22

---

protocol summary: Restrictive medium S. cerevisiae growth inhibition, OD615, pilot screen of yeast lifespan reduction project, restrictive growth control (AID 706);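 further: modified DeaD lifespan yeast strain shifted to restrictive glucose medium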
test settings: OD615, 48 h, at 10 µM, stronger effect = higher value
Quick reference: growth inhibition of the listed items.
Answer with a number only, understood to be in %.

// solved cases for growth inhibition follow
O=C(Nc1nnc(-c2ccc(F)cc2)o1)c1ccco1 ... -4.85
COc1ccc(S(=O)(=O)Cc2ccc(C(=O)NCc3cccnc3)o2)cc1 ... -10.1
CC(C)CC(NS(=O)(=O)c1ccc2c(c1)oc(=O)n2C)C(=O)NC1CCCc2ccccc21 (stereo not given) ... -5.15
CC(=O)Nc1cc2c(cc1C(=O)c1ccccc1)OCCO2 ... 7.87

# growth inhibition (compound: `Cc1noc(NS(=O)(=O)c2ccc(NC(=O)c3cnc4scc(C)n4c3=O)cc2)c1C` ) is -5.18

compound `O=C(/C=C\Nc1ccccn1)c1ccc(Cl)cc1` , growth inhibition observed: -36.4

Per the records, this compound ( `O=C(NC(=O)c1ccccc1)OCC(F)(F)F` ) has growth inhibition equal to -1.48

# growth inhibition of O=C(NCC1CCCO1)c1ccc2nc(N3CCCCC3)sc2c1 (stereo not given) = -4.53

Lab note: COc1ccc(Br)cc1CNC(=O)C1CCC(=O)N1C(C)C (stereo not given) gave growth inhibition of 4.42

get_value(item= `Cn1cnnc1SCc1ccc(C#N)cc1Cl` , readout=growth inhibition) returns -15.1

Short answer for `Cc1ccc(S(=O)(=O)Cc2ccc(C(=O)N3CCN(c4ccccn4)CC3)o2)cc1` : growth inhibition was -3.59

Note to self: growth inhibition recorded for CC(NS(=O)(=O)c1ccc(Br)cc1)C(c1cccs1)N1CCN(C)CC1 (stereo not given) was 3.13

growth inhibition recorded for this compound, `O=C(Cn1cc2c(n1)CCCC2)NCc1cccnc1` , is -0.58

# growth inhibition (compound: `Clc1ccc(C=NC23CN4CN(CN(C4)C2)C3)cc1` ) is 6.34

---

We begin with a simple list: items and their reported viability.
protocol summary: growth suppression of PTEN-deleted HCT116, pilot screen, cell-based, HCT116 clonal line, CellTiter-Glo (AID 824);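 further: 0% = 20 µM Hyamine control and 100% = vehicle cell control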
test settings: 60 h, at 10 µM, stronger effect = lower value
Inconclusive results are not listed.
Answer with a number only, understood to be in %.

// below: answered compounds
Cc1ccccc1-n1c(C)nc2ccccc21 ... 93.7
CC12CC(NC(=O)N1CCc1ccccc1)c1ccccc1O2 (centres undefined) ... 73.8
Cc1noc(C)c1S(=O)(=O)N(CC(=O)NCc1ccc(Cl)cc1)c1ccc2c(c1)OCO2 ... 97.9
CCCCn1nc(NC(=O)c2cccs2)c2cc3ccccc3nc21 ... 48.3
COc1ccc(NC(=O)C2CCCN(S(=O)(=O)c3cccc4cccnc34)C2)c(OC)c1 (centres undefined) ... 70.7
COCCCN1CC23C=CC(O2)C(C(=O)O)C3C1=O (centres undefined) ... 106

So, CCOc1ccc(C2c3c(oc4ccccc4c3=O)C(=O)N2c2ccccn2)cc1OC (centres undefined) ? Its viability was 96.2

The recorded viability for COC(=O)CN1C(=O)C(O)(CC(=O)c2ccc(Br)cc2)c2ccccc21 (centres undefined) is 96.6

Input `C=C(C)Cc1c(C)nc(-c2ccccc2)[nH]c1=O` . Output viability: 98.5

---

protocol summary: RAM signaling pathway blockade in yeast – S. cerevisiae, Pdr1DBD-CYC8 efflux-inhibited sensitized strain, primary screen (AID 1298);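 further: 0% = DMSO untreated cells without growth and 100% = 10 µM 1-NA-PP1 full growth; higher means more yeast growth rescued from 5-FOA killing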
test settings: S. cerevisiae cbk1-as DSE1-URA3 strain, 5-FOA growth OD615, 2 d; at 50 µM; stronger effect = higher value
assay endpoint: RAM network inhibition (%)
The response must be a number in % with no trailing unit.

Take a look at these entries with their results.
COc1ccccc1C(=O)Nc1ccc2oc(-c3ccc(F)cc3)nc2c1 ... 1.85
Cc1ccc(N2CN=c3s/c(=C\c4ccccn4)c(=O)n3C2)cc1 ... 3.39
O=C(CSc1nnc2sc3ccccc3n12)NCc1ccc2c(c1)OCO2 ... 4.54

Please examine the following record next.
Notebook: O=C1c2oc3ccc(F)cc3c(=O)c2C(c2ccncc2)N1CCN1CCOCC1 (centres undefined) , RAM network inhibition read as 0.47
